B1: glmS ribozyme (parent)
chain: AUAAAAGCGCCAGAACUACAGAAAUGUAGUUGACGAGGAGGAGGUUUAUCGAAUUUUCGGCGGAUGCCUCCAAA

- Variants of: B1
- ASSAY_PROTOCOL: self-cleavage kobs at 640 uM GlcN6P; higher = faster cleavage; RNA array
- CONDITION: with glucosamine-6-phosphate
This sample holds only a part of the variants without activity.
Threshold rule: self-cleavage kobs at 640 uM GlcN6P greater than or equal to 0.0001 s⁻¹ is met; below that, not met.

Worked examples, 3 variants total:
A33U U57G C68G    met
G37U C58U U69A    not met
G32U G60C    not met

Q: # check: self-cleavage kobs at 640 uM GlcN6P of C68U is greater than or equal to 0.0001 s⁻¹
A: met

Value source: the supplement of paper PMC7125110
